biological target: Phosphatidylinositol 4,5-bisphosphate 3-kinase catalytic subunit beta isoform (Homo sapiens, UniProt P42338); experiment: KINOMEscan Enzyme Binding Assays
Sequence (P42338 whole entry, canonical isoform): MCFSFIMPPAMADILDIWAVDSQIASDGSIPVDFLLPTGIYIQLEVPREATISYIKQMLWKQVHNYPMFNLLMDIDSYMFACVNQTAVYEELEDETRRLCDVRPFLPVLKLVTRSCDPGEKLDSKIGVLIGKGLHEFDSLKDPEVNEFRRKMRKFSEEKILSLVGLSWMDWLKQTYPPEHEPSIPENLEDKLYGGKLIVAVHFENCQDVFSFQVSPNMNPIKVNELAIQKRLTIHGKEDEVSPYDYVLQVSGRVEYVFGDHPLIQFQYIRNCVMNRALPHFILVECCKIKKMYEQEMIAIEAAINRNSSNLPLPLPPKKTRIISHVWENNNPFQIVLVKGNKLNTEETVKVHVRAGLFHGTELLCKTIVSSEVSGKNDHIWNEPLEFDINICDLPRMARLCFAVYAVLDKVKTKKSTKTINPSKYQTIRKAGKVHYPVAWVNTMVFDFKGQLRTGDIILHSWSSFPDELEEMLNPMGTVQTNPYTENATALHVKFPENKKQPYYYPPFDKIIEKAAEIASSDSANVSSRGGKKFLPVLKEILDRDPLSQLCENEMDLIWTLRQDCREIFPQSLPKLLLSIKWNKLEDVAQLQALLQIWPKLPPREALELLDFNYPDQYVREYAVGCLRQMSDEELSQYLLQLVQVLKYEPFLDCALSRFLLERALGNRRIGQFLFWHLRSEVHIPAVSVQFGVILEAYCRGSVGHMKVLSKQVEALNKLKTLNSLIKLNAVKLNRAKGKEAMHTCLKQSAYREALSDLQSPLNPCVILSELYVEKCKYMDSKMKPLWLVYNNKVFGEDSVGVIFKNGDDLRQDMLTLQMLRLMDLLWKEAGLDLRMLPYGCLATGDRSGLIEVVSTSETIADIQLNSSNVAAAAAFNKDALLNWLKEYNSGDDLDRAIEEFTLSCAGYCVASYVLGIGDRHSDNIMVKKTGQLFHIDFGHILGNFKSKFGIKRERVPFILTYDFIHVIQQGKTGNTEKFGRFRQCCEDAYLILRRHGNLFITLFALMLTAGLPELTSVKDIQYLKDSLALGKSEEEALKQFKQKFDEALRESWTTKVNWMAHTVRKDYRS
reported.property: Kd (nM)
One number for each entry, in nM.

[[record]]
chemical_smiles = "CCc1c(F)cccc1Cc1c(CNCCO)nc2c(N)cc(N3CCOCC3)nn12"
observed = 6.2


Here's the next entry for you.
Q: Entry under review: `Cc1c(Cc2c(CO)nc3c(-c4cnc[nH]4)cc(N4CCOCC4)nn23)cccc1C(F)(F)F` . Reported Kd?
Result: 1.9
